The measured values listed here are drawn from the RNAGym collection of RNA variant scans (doi:10.1021/acssynbio.7b00057).

B1: Pistol ribozyme (parent)
chain: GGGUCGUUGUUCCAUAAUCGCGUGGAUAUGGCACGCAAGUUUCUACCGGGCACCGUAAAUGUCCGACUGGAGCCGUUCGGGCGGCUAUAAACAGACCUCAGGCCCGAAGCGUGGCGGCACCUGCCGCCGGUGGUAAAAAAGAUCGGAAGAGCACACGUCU

Variants of: B1
Test: aptazyme ON/OFF ratio, guanine; higher = stronger switching; co-transcriptional cleavage with and without guanine
MEASURED_METRIC: aptazyme ON/OFF ratio
Answer with a bare number; do not write a unit.

# count of solved cases: 3
U7G G9A U11G C12U C13G :: 1.11
U7G U8C U10A U11G C12A C13U :: 1.19
U8G G9U U11A C12A :: 1.42

Now look at this one.
*Q* Recorded aptazyme ON/OFF ratio for G9U U10A U11G C13A , please?
*A* 1.56
